This listing pairs molecules with measured isoTOP-ABPP reactivity ratio, P40763_C259.
# assay-system: UniProtKB P40763
# Sequence (P40763 whole entry): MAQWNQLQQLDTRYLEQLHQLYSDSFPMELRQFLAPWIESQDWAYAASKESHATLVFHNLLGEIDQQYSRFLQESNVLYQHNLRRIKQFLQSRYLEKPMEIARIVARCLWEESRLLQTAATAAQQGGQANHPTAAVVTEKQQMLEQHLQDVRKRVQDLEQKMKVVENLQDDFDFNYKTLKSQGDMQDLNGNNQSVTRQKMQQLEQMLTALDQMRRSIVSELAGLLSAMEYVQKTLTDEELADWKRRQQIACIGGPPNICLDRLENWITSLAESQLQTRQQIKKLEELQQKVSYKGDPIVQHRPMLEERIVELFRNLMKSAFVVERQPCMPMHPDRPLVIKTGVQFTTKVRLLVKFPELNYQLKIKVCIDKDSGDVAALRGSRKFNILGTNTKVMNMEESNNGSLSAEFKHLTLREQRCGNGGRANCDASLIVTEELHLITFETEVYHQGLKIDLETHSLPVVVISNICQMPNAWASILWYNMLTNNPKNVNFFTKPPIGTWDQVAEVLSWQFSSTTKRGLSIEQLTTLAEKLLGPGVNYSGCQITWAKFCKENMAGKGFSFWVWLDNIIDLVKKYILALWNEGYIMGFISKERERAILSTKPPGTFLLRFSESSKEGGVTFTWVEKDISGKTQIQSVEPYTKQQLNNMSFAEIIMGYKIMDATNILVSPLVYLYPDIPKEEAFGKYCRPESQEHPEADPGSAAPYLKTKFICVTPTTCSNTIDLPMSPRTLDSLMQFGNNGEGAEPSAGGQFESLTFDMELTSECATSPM
# method-description: Competitive isoTOP-ABPP, cell lysates
# Assay type: binding
# experimental-setup: 500 μm, in-vitro_ramos
Respond using a number only.

Past entries and their recorded results:
cpd_smiles=C=CC(=O)N1CCC(c2noc3ccc(F)cc23)CC1 recorded_result=0.9
cpd_smiles=C=CC(=O)Nc1cc(C)c(Br)cc1C recorded_result=1.4
cpd_smiles=O=C(CCl)Nc1ccccc1C1CCCCCC1 recorded_result=1.1

Query string: Please indicate isoTOP-ABPP reactivity ratio, P40763_C259 recorded for C=CC(=O)Nc1cc(F)c(N2CCN(C(=O)OC(C)(C)C)CC2)c(F)c1
Result string: 1.5
